biological target: OCT1 (Homo sapiens); assay: OCT1 uptake inhibition in transfected HEK cells; format: in vitro ADME
Sequence (O15245 whole entry): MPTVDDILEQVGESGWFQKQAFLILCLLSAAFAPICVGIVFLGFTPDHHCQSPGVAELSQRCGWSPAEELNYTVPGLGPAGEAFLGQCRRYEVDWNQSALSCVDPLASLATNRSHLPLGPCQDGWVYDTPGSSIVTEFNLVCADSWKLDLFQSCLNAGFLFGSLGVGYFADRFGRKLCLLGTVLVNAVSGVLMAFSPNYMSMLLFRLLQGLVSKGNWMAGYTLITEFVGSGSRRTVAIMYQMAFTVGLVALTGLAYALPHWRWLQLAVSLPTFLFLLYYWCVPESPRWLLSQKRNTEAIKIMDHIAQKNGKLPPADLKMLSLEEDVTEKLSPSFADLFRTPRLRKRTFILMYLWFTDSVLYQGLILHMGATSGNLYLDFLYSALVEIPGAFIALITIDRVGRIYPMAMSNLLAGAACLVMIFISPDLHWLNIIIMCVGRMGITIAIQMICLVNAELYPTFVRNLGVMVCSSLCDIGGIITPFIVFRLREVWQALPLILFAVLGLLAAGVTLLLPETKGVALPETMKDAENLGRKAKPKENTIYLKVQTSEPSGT
Measured Parameter: IC50

Field IC50 (entry CC(O)c1cc(C(=O)N[C@@H](C)Cn2ccc(-c3ccc(C#N)c(Cl)c3)n2)[nH]n1 (stereo partly shown) [Darolutamide, darolutamide] ) reads > 50 µM

---

Molecular target: UGT1A1 (Homo sapiens, UniProt P22309)
Sequence (P22309 26-533): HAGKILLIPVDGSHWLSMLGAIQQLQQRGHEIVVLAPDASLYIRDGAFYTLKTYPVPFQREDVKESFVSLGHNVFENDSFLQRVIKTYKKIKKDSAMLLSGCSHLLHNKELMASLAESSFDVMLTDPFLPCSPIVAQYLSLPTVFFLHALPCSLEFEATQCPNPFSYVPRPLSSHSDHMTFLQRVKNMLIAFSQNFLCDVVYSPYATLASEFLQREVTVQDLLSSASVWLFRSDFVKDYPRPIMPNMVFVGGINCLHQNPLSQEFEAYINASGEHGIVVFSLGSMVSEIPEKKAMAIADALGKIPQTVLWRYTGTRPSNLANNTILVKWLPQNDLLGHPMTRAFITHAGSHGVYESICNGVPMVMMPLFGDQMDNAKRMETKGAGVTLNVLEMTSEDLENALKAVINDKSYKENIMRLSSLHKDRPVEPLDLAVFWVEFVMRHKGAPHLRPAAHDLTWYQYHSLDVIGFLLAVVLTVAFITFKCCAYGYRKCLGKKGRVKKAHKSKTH
Experiment: UGT1A1 inhibition in human liver microsomes
Type: in vitro ADME
Settings: read-out: Ki, UGT1A1
Measured Parameter: pKi
Answers are plain numbers, as −log10 of the molar value.

Sure, the documented pKi for CC(=O)c1cc(C(=O)N[C@@H](C)Cn2ccc(-c3ccc(C#N)c(Cl)c3)n2)[nH]n1 [Keto-darolutamide, keto-darolutamide] is 5.09

---

Field: IC50. Provide a value for each of the molecules that follow.
molecular target: CYP3A4 (Homo sapiens); experiment: CYP3A4 inhibition in human liver microsomes; format: in vitro ADME; details: read-out: IC50, CYP3A4 (with pre-incubation); human liver microsomes; substrate testosterone; 30 min pre-incubation
Sequence (P08684 whole entry): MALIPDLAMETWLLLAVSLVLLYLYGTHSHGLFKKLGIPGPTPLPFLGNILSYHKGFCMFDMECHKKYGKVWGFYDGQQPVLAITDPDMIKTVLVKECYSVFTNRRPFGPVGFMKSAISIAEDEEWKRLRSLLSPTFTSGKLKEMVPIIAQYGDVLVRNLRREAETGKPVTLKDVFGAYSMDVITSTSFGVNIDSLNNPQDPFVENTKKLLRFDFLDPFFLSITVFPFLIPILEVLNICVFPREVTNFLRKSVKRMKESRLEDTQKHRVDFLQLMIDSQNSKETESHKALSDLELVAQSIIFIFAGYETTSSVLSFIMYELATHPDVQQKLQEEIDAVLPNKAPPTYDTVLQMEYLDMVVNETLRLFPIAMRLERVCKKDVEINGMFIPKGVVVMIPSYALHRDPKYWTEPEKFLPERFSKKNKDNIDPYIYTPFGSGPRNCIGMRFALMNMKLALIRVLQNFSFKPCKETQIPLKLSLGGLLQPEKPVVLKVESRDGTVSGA

# annotated cases, reported IC50 shown
{"Molecule": "CC(=O)c1cc(C(=O)N[C@@H](C)Cn2ccc(-c3ccc(C#N)c(Cl)c3)n2)[nH]n1 [Keto-darolutamide, keto-darolutamide]", "Target Of Assay": "CYP3A4 (Homo sapiens)", "IC50": "> 50 µM"}
{"Molecule": "C[C@H](O)c1cc(C(=O)N[C@@H](C)Cn2ccc(-c3ccc(C#N)c(Cl)c3)n2)n[nH]1 [(S,S)-darolutamide]", "Target Of Assay": "CYP3A4 (Homo sapiens)", "IC50": "> 50 µM"}
{"Molecule": "C[C@@H](Cn1ccc(-c2ccc(C#N)c(Cl)c2)n1)NC(=O)c1cc([C@@H](C)O)[nH]n1 [(S,R)-darolutamide]", "Target Of Assay": "CYP3A4 (Homo sapiens)", "IC50": "> 50 µM"}

Given item CC(O)c1cc(C(=O)N[C@@H](C)Cn2ccc(-c3ccc(C#N)c(Cl)c3)n2)[nH]n1 (stereo partly shown) [Darolutamide, darolutamide] , the value recorded as its IC50 is > 100 µM

---

target: MRP2 (Homo sapiens, UniProt Q92887); assay: MRP2 inhibition in transfected HEK cells; format: in vitro ADME
Sequence (Q92887 whole entry): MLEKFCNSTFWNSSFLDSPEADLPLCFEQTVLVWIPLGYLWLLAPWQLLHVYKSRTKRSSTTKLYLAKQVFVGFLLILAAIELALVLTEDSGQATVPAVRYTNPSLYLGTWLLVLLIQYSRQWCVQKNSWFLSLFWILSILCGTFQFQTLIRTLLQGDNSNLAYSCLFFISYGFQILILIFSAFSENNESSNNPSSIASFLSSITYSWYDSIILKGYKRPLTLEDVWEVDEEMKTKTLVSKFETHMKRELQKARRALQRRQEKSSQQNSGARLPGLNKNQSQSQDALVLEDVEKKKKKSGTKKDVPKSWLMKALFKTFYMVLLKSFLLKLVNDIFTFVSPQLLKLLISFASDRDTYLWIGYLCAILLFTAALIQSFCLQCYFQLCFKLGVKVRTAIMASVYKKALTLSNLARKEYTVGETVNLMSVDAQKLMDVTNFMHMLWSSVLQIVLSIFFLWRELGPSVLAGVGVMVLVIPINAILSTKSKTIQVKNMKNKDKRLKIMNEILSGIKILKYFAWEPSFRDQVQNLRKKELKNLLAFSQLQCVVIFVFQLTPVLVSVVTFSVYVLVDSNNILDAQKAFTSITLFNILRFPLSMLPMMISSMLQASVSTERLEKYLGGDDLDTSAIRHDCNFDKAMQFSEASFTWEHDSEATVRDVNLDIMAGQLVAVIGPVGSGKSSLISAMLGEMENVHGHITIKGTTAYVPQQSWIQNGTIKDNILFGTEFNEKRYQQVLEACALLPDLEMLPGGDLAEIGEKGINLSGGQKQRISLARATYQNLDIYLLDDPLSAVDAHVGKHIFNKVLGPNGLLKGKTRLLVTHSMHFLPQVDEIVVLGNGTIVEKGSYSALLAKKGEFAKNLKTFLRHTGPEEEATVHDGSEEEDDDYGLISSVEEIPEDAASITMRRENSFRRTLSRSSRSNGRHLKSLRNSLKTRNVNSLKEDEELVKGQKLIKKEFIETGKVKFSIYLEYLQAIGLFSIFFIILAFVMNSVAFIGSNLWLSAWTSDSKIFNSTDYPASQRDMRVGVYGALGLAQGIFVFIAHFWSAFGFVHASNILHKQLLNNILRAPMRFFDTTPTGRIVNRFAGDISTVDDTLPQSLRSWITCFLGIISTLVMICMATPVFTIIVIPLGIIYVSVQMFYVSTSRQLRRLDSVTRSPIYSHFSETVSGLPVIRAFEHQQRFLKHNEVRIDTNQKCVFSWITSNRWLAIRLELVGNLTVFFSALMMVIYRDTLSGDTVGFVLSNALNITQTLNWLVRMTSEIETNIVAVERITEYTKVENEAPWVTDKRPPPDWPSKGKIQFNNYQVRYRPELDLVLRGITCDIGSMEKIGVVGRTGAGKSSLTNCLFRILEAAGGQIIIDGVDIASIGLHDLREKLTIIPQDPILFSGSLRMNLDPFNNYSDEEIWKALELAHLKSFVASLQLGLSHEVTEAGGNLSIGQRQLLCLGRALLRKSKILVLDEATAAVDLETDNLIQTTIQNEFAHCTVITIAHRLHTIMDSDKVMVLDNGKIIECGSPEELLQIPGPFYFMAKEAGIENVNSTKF
Measured Parameter: IC50

Result for CC(O)c1cc(C(=O)N[C@@H](C)Cn2ccc(-c3ccc(C#N)c(Cl)c3)n2)[nH]n1 (stereo partly shown) [Darolutamide, darolutamide] , tested on MRP2 (Homo sapiens, UniProt Q92887), IC50: > 50 µM

---

molecular target: OAT3 (Homo sapiens); test: OAT3 uptake inhibition in transfected HEK cells; format: in vitro ADME; conditions: read-out: IC50, OAT3; HEK cells; substrate furosemide, reference probenecid
Sequence (Q8TCC7 whole entry): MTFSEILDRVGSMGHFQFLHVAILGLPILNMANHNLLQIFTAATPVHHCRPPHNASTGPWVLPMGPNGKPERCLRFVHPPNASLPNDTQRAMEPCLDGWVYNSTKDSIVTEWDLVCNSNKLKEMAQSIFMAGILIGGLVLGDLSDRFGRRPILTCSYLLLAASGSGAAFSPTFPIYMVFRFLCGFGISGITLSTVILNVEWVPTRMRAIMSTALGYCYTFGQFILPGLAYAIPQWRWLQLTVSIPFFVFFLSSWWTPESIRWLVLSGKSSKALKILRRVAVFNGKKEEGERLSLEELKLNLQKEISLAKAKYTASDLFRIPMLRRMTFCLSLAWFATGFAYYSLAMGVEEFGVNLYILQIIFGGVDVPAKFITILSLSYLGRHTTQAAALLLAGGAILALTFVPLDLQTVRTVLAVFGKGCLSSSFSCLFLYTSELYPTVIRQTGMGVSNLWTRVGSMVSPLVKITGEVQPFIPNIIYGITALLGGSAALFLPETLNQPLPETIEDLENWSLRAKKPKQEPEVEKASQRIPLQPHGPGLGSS
pIC50: −log10 of the molar value.
Measured Parameter: pIC50

# pIC50 (compound: CC(=O)c1cc(C(=O)N[C@@H](C)Cn2ccc(-c3ccc(C#N)c(Cl)c3)n2)[nH]n1 [Keto-darolutamide, keto-darolutamide] ) is < 5.70

---

target: UniProt O95342; test: BSEP inhibition in sandwich-cultured human hepatocytes; assay type: in vitro ADME
Sequence (O95342 whole entry): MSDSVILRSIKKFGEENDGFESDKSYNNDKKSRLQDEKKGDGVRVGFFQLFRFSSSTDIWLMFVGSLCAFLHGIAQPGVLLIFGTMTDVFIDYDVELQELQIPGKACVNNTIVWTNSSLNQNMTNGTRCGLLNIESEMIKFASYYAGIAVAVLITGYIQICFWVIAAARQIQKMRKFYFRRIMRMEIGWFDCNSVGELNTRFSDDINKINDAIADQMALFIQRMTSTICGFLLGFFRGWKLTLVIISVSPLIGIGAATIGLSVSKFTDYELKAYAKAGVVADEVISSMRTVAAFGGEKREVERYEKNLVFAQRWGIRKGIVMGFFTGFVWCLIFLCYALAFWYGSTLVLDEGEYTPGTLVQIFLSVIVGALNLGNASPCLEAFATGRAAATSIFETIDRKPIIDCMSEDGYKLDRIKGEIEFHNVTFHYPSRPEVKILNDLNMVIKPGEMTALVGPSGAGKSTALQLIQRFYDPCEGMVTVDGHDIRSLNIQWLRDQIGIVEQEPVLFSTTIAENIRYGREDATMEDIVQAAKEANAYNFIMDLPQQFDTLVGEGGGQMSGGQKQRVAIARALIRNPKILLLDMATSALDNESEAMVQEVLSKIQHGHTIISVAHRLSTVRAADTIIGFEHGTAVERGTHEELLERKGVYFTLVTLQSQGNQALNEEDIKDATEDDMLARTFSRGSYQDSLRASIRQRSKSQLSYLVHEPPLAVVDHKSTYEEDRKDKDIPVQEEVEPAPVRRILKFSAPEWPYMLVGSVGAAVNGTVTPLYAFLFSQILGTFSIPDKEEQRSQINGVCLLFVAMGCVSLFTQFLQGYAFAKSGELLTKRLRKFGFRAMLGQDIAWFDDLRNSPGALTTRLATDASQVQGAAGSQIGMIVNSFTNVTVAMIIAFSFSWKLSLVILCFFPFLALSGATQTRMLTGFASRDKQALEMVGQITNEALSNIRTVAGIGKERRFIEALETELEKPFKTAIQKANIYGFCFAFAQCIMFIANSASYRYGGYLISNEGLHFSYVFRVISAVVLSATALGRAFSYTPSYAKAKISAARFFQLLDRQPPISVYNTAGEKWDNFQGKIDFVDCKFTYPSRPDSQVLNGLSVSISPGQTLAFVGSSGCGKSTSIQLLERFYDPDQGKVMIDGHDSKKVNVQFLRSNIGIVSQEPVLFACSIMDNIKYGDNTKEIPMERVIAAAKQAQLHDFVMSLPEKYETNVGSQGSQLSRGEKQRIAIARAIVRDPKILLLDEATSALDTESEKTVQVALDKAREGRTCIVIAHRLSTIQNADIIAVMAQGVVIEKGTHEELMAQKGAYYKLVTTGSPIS
Measured Parameter: IC50

Lab book: IC50 of CC(O)c1cc(C(=O)N[C@@H](C)Cn2ccc(-c3ccc(C#N)c(Cl)c3)n2)[nH]n1 (stereo partly shown) [Darolutamide, darolutamide] noted as > 60 µM

---

biological target: UniProt:P11712; test: CYP2C9 inhibition in human liver microsomes; format: in vitro ADME; conditions: read-out: IC50, CYP2C9; human liver microsomes; substrate diclofenac
Sequence (P11712 whole entry): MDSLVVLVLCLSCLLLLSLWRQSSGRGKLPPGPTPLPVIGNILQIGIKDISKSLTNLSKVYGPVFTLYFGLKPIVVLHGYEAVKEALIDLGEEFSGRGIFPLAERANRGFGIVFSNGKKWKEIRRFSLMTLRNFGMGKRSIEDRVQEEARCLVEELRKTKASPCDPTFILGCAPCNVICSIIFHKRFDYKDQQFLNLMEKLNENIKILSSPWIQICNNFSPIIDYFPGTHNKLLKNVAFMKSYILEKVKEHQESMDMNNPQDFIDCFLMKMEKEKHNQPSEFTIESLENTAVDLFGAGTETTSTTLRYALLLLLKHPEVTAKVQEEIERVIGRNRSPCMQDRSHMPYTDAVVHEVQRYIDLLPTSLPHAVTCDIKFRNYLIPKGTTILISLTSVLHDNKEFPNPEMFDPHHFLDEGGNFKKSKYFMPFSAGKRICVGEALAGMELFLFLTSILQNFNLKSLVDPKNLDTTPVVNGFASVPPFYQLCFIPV
Measured Parameter: pIC50
Answers are plain numbers, as −log10 of the molar value.

{"Molecule": "C[C@@H](Cn1ccc(-c2ccc(C#N)c(Cl)c2)n1)NC(=O)c1cc([C@@H](C)O)[nH]n1 [(S,R)-darolutamide]", "Target Of Assay": "UniProt:P11712", "Recorded Result": 4.65}

Kindly review the next molecule as well.
Tested system UniProt:P11712; pIC50 recorded for CC(=O)c1cc(C(=O)N[C@@H](C)Cn2ccc(-c3ccc(C#N)c(Cl)c3)n2)[nH]n1 [Keto-darolutamide, keto-darolutamide] was 5.02

---

molecular target: UniProtKB P08684; test: CYP3A4 inhibition in human liver microsomes; assay type: in vitro ADME
Measured Parameter: IC50

So the reported IC50 for CC(O)c1cc(C(=O)N[C@@H](C)Cn2ccc(-c3ccc(C#N)c(Cl)c3)n2)[nH]n1 (stereo partly shown) [Darolutamide, darolutamide] , on UniProtKB P08684, turned out to be > 100 µM
